Target: Glucocorticoid receptor (Homo sapiens)
Sequence (P04150 whole entry): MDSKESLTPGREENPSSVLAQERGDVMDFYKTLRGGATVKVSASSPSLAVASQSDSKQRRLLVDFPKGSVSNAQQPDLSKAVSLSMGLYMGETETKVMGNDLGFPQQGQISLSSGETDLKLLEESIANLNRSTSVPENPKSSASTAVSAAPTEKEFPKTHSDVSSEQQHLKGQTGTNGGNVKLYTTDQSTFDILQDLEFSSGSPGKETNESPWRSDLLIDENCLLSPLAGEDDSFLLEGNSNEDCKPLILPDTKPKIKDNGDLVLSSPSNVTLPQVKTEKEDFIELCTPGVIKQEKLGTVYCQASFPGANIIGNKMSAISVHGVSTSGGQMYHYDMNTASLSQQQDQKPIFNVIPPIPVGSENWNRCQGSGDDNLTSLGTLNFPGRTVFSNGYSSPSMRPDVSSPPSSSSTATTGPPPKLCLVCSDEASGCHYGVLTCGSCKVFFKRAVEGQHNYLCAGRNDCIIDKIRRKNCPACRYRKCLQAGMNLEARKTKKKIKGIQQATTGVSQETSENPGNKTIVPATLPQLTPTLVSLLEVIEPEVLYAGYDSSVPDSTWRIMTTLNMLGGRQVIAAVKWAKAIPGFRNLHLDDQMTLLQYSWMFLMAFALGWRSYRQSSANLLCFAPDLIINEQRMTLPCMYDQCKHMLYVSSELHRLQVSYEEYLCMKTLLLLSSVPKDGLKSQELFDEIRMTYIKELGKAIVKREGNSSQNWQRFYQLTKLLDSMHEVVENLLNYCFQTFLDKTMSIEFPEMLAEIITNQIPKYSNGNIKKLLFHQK
Test: Transactivation of GR-LBD expressed in human HeLa cells co-expressing GAL4-DBD by luciferase reporter gene assay
Assay type: cell-based
Hi! Could you tag entries with EC50 below 300 nM as criterion met, and those at or above as criterion not met? Much appreciated.

compound: CC(C)(C(=O)Nc1nncs1)C(c1ccccc1)c1ccn2c(-c3ccccc3)ncc2c1 (single isomer, unassigned; enantiomer 2)
classification: criterion not met
//
compound: CC(C)(C(=O)Nc1nncs1)C(c1ccccc1)c1ccc2c(-c3ccc(C#N)cc3)ncn2c1 (stereo unspecified)
classification: criterion not met
//
compound: CC(C)(C(=O)Nc1nccs1)C(c1ccccc1)c1ccc2c(-c3ccc(F)cc3)ncn2c1 (stereo unspecified)
classification: criterion met
//
compound: CC(C)(C(=O)Nc1nncs1)C(c1ccccc1)c1ccc2c(-c3ccc(F)cc3)ncn2c1 (single isomer, unassigned; enantiomer 1)
classification: criterion not met
//
compound: CC(C)(C(=O)Nc1nccs1)C(c1ccccc1)c1ccn2c(-c3ccccc3)ncc2c1 (single isomer, unassigned; enantiomer 1)
classification: criterion not met
//
compound: CC(C)(C(=O)Nc1nccs1)C(c1ccccc1)c1ccc2c(-c3ccc(F)cc3)ncn2c1 (single isomer, unassigned; enantiomer 2)
classification: criterion met
//
compound: CC(C)(C(=O)Nc1nccs1)C(c1ccccc1)c1ccc2c(-c3ccc(F)cc3F)ncn2c1 (stereo unspecified)
classification: criterion met
//
compound: CC(C)(C(=O)Nc1nccs1)C(c1ccccc1)c1ccc2c(-c3ccc(F)c(Cl)c3)ncn2c1 (stereo unspecified)
classification: criterion not met
//
compound: CC(C)(C(=O)Nc1nncs1)C(c1ccccc1)c1ccc2c(-c3ccc(F)cc3F)ncn2c1 (stereo unspecified)
classification: criterion met
//
compound: CC(C)(C(=O)Nc1nccs1)C(c1ccccc1)c1ccc2c(-c3ccc(C#N)cc3)ncn2c1 (stereo unspecified)
classification: criterion not met
//
compound: CC(C)(C(=O)Nc1nncs1)C(c1ccccc1)c1ccn2c(-c3ccccc3)ncc2c1 (single isomer, unassigned; enantiomer 1)
classification: criterion not met
//
compound: CC(C)(C(=O)Nc1nncs1)C(c1ccccc1)c1ccn2c(-c3ccccc3)ncc2c1 (stereo unspecified)
classification: criterion not met
//
compound: CC(C)(C(=O)Nc1nncs1)C(c1ccccc1)c1ccc2c(-c3cccc(CO)c3)ncn2c1 (stereo unspecified)
classification: criterion not met
//
compound: CC(C)(C(=O)Nc1nccs1)C(c1ccccc1)c1ccc2c(-c3cccc(C#N)c3)ncn2c1 (stereo unspecified)
classification: criterion not met
//
compound: CC(C)(C(=O)Nc1nncs1)C(c1ccccc1)c1ccc2c(-c3ccc(F)cc3)ncn2c1 (stereo unspecified)
classification: criterion met
//
compound: CC(C)(C(=O)Nc1nncs1)C(c1ccccc1)c1ccc2c(-c3ccc(F)c(Cl)c3)ncn2c1 (stereo unspecified)
classification: criterion not met
